# ASSAY DETAILS: in vitro
# EXPERIMENTAL CONDITIONS: human, Caco-2, Caco-2
Where a SMILES comes first, the peptide text is derived from it. Bridges are numbered along the chain shown (N, C = ends). [ ]: non-standard residue; d: D form. The star is where a group is joined. ξ: configuration not given here. ξGln(SO2Me) = CS(=O)(=O)NC(=O)CCC(N)C(=O)O; NMeF = CN[C@@H](Cc1ccccc1)C(=O)O; NMeL = CN[C@@H](CC(C)C)C(=O)O; NMeV = CN[C@H](C(=O)O)C(C)C; NMeAbu = CC[C@H](NC)C(=O)O; Piperidide = C1CCN(*)CC1; NBuGly = CCCCNCC(=O)O
RESULT TYPE: Papp

[[record]]
compound = "CCCCN1CC(=O)N(C)[C@@H](C(C)C)C(=O)N[C@H](C(=O)N2CCCCC2)CC(=O)N(C)[C@@H](CC)C(=O)N[C@@H](CC(C)C)C(=O)N(C)[C@@H](CC(C)C)C(=O)N(C)[C@@H](Cc2ccccc2)C(=O)NC(CCC(=O)NS(C)(=O)=O)C(=O)N(C)[C@@H](Cc2ccccc2)C(=O)N(C)[C@@H](CC(C)C)C(=O)N[C@@H](CC(C)C)C1=O (stereo partly drawn) [pd69] ([NMeAbu]L[NMeL][NMeF][ξGln(SO2Me)][NMeF][NMeL]L[NBuGly][NMeV]D-Piperidide; lactam N-11)"
reported_measurement = "< 0.14 ×10⁻⁶ cm/s"


Source: patent US20230096766A1
